System: mGrn mRNA
Assay overview: mGrn mRNA qPCR in Neuro2a cells transfected with ASOs
Type: cell-based, mouse
Details: Table 15; Neuro2a, 40 nM, transfection
Oligonucleotides are written 5' to 3', each unit as a sugar letter and its base; * is a phosphorothioate linkage, no mark a phosphodiester; rarer units and linkages stand in square brackets, end groups in braces. Plain capitals give the bases only. e = 2'-O-(2-methoxyethyl) (MOE); l = locked nucleic acid (LNA); [5mC] = 5-methylcytosine
Below, each of the substances is paired with its reported 40 nM FC (mGrn mRNA) value.

{"columns": ["Substance", "40 nM FC (mGrn mRNA)"],
 "data": [
  ["CO-5299: CO-3544 modified to include PO/PS bonds (antisense eG*eT*eTe[5mC]eTe[5mC]e[5mC]e[5mC]eTeA*eG*e[5mC]*eT*eGeT*eG*eT*eA*eG*eT)", "1.2 FC"],
  ["CO-5300: CO-3544 modified to include PO/PS bonds (antisense eG*eT*eTe[5mC]eTe[5mC]e[5mC]e[5mC]*eT*eA*eG*e[5mC]*eT*eG*eT*eG*eT*eA*eG*eT)", "1.3 FC"],
  ["CO-5295: CO-3544 modified to include PO/PS bonds (antisense eG*eT*eT*e[5mC]*eT*e[5mC]*e[5mC]*e[5mC]*eT*eA*eG*e[5mC]*eTeGeTeGeT*eA*eG*eT)", "1.1 FC"],
  ["CO-5294: CO-3544 modified to include PO/PS bonds (antisense eG*eT*eT*e[5mC]*eT*e[5mC]*e[5mC]*e[5mC]*eT*eA*eGe[5mC]eTeGeTeGeT*eA*eG*eT)", "1.1 FC"],
  ["CO-5293: CO-3544 modified to include PO/PS bonds (antisense GTTCTCCCTAGCTGTGTAGT; 2'-MOE, mixed PS/PO, 5-methylcytosine; listed as RNA; modified_base 1..9: mod_base = OTHER; note = Phosphorothioate linkage; modified_base 17..20: mod_base = OTHER; modified_base 1..20: mod_base = OTHER; note = 2'-O-(2-methoxyethyl) ribonucleotide; modified_base 4)", "1.1 FC"],
  ["CO-5292: CO-3544 modified to include PO/PS bonds (antisense eG*eT*eT*e[5mC]*eT*e[5mC]*e[5mC]e[5mC]eTeAeGe[5mC]eTeGeTeGeT*eA*eG*eT)", "1.1 FC"],
  ["CO-5298: CO-3544 modified to include PO/PS bonds (antisense eG*eT*eTe[5mC]eTe[5mC]e[5mC]e[5mC]eTeAeGe[5mC]*eT*eG*eT*eG*eT*eA*eG*eT)", "1.3 FC"],
  ["CO-5291: CO-3544 modified to include PO/PS bonds (antisense eG*eT*eT*e[5mC]*eTe[5mC]e[5mC]e[5mC]eTeAeGe[5mC]eTeGeTeGeT*eA*eG*eT)", "0.9 FC"],
  ["CO-5302: CO-3544 modified to include PO/PS bonds (antisense lG*lT*eT*l[5mC]*eT*l[5mC]*e[5mC]*l[5mC]*eT*lA*eG*l[5mC]*eT*lG*eT*lG*lT*eA*lG*lT)", "1.3 FC"],
  ["CO-3544: ASO targeting the mouse Grn promoter (− strand); targets mouse Grn paRNA (antisense eG*eT*eT*e[5mC]*eT*e[5mC]*e[5mC]*e[5mC]*eT*eA*eG*e[5mC]*eT*eG*eT*eG*eT*eA*eG*eT)", "1.2 FC"]
]}

Every entry's value here was drawn from patent US20250243488A1.
